# pIC50 per record follows
tested.on: VLA-4 (a4b1 integrin) (Homo sapiens, UniProt P05556+P13612)
Construct: followed by 10 µl of Ramos cell-derived VLA-4; endogenous in cells; host or cells: Ramos cells (VLA-4 preparation derived from the cells)
Sequence (P13612 34-1032): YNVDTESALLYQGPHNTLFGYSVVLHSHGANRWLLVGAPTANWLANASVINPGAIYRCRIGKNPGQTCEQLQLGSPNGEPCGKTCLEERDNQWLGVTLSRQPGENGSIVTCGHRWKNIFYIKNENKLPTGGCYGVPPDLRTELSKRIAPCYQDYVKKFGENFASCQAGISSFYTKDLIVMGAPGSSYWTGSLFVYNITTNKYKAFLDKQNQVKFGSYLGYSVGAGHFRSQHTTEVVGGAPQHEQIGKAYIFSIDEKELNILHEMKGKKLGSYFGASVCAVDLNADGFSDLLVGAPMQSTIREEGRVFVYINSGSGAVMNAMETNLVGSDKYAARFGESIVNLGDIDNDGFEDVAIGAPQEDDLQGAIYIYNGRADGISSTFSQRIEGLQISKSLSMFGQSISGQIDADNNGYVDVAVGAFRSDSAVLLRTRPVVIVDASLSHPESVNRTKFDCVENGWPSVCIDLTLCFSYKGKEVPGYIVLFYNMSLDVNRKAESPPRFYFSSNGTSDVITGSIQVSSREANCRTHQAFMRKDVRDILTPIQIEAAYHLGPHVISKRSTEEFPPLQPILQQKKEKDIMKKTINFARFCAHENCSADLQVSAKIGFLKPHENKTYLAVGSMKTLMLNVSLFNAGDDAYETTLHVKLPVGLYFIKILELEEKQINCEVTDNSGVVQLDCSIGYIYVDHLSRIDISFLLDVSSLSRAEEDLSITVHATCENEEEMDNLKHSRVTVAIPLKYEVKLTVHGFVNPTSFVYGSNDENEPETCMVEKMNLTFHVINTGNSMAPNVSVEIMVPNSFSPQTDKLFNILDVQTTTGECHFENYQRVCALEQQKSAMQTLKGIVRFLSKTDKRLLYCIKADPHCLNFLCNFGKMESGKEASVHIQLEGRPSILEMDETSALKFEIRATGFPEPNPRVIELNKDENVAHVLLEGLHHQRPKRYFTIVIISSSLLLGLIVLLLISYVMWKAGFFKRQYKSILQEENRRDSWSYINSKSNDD
Sequence (P05556 21-798): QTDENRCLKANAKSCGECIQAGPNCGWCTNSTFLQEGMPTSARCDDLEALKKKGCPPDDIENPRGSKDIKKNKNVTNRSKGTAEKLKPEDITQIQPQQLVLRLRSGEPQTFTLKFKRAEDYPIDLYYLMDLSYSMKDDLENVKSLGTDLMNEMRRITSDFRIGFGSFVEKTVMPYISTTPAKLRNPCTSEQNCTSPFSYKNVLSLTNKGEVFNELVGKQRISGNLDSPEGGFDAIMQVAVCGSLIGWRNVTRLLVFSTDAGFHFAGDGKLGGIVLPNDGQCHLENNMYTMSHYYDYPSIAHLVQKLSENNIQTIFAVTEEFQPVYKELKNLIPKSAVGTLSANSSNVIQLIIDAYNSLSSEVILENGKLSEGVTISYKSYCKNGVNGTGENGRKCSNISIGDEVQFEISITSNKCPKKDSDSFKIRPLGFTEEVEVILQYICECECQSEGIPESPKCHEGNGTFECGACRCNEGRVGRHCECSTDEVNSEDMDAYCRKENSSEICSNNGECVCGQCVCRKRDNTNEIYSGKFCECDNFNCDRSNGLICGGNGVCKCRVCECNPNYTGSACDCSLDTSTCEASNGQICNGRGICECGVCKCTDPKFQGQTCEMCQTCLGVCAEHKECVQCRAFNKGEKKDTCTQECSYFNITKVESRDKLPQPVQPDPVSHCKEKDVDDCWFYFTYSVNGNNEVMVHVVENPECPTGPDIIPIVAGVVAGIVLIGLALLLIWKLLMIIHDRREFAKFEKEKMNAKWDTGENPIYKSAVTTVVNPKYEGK
assay.remarks: Ramos (VLA-4) / VCAM-1 Cell-Based Screening Assay (cell adhesion)
pIC50: −log10 of the molar value.
measurement.label: pIC50

[
  {
    "chem.smiles": "Cc1cc(C(F)(F)F)c(C(=O)Nc2ccc(C[C@H](NC(=O)c3c(C)cccc3Cl)C(=O)O)cc2)c(C)n1",
    "value.reported": 7.33
  },
  {
    "chem.smiles": "Cc1cccc(Cl)c1C(=O)N[C@@H](Cc1ccc(NC(=O)c2c(C)ccnc2C)cc1)C(=O)O",
    "value.reported": 7.70
  }
]

---

tested.on: VLA-4 (a4b1 integrin) (Homo sapiens, UniProt P05556+P13612)
Construct: followed by 10 µl of Ramos cell-derived VLA-4; endogenous in cells; host or cells: Ramos cells (VLA-4 preparation derived from the cells)
assay.remarks: VLA-4 / VCAM-1 Screening Assay (solid-phase, dual antibody ELISA)
protocol.conditions: Ramos cell-derived VLA-4 binding to immobilized recombinant human VCAM-1; 1 mM MnCl2, 2 hr at 37 °C; read-out: ELISA IC50
pIC50: −log10 of the molar value.
List of pIC50 values.
measurement.label: pIC50

[
  {
    "chem.smiles": "CS(=O)(=O)c1ccc(C(=O)N[C@@H](Cc2ccc(NC(=O)c3c(Cl)cccc3Cl)cc2)C(=O)O)c(Cl)c1",
    "tested.on": "VLA-4 (a4b1 integrin) (Homo sapiens, UniProt P05556+P13612)",
    "value.reported": 9.60
  },
  {
    "chem.smiles": "CC(C)c1cccc(C(C)C)c1C(=O)N[C@@H](Cc1ccc(NC(=O)c2c(Cl)cccc2Cl)cc1)C(=O)O",
    "tested.on": "VLA-4 (a4b1 integrin) (Homo sapiens, UniProt P05556+P13612)",
    "value.reported": 7.96
  },
  {
    "chem.smiles": "Cc1cccc(C(=O)N[C@@H](Cc2ccc(NC(=O)c3c(Cl)cccc3Cl)cc2)C(=O)O)c1Cl",
    "tested.on": "VLA-4 (a4b1 integrin) (Homo sapiens, UniProt P05556+P13612)",
    "value.reported": 8.85
  }
]

---

Listed here: items and their measured pIC50.
tested.on: VLA-4 (a4b1 integrin) (Homo sapiens, UniProt P05556+P13612)
Construct: followed by 10 µl of Ramos cell-derived VLA-4; endogenous in cells; host or cells: Ramos cells (VLA-4 preparation derived from the cells)
assay.remarks: VLA-4 / VCAM-1 Screening Assay (solid-phase, dual antibody ELISA)
protocol.conditions: Ramos cell-derived VLA-4 binding to immobilized recombinant human VCAM-1; 1 mM MnCl2, 2 hr at 37 °C; read-out: ELISA IC50
pIC50: −log10 of the molar value.
measurement.label: pIC50

[
  {
    "chem.smiles": "O=C(N[C@@H](Cc1ccc(NC(=O)c2c(Cl)cccc2Cl)cc1)C(=O)O)c1cccc(Cl)c1Cl",
    "measurement.label": "pIC50",
    "value.reported": 8.66
  },
  {
    "chem.smiles": "COc1ccc(Br)c(C(=O)N[C@@H](Cc2ccc(NC(=O)c3c(Cl)cccc3Cl)cc2)C(=O)O)c1",
    "measurement.label": "pIC50",
    "value.reported": 9.60
  },
  {
    "chem.smiles": "COC(=O)[C@H](Cc1ccc(N2C(=O)[C@@H](C(C)C)N(C)C2=O)cc1)NC(=O)c1c(C)cccc1Cl",
    "measurement.label": "pIC50",
    "value.reported": 9.33
  },
  {
    "chem.smiles": "O=C(N[C@@H](Cc1ccc(NC(=O)c2c(Cl)cccc2Cl)cc1)C(=O)O)c1ccc(Br)cc1Cl",
    "measurement.label": "pIC50",
    "value.reported": 8.80
  },
  {
    "chem.smiles": "Cc1cccc(Cl)c1C(=O)N[C@@H](Cc1ccc(NC(=O)c2c(Cl)cccc2Cl)cc1)C(=O)O",
    "measurement.label": "pIC50",
    "value.reported": 9.48
  },
  {
    "chem.smiles": "CC(=O)N1[C@H](CC(C)C)C(=O)N(c2ccc(C[C@H](NC(=O)c3c(C)cccc3Cl)C(=O)O)cc2)[C@@H]1C(C)(C)C",
    "measurement.label": "pIC50",
    "value.reported": 7.39
  },
  {
    "chem.smiles": "Nc1ccc(C(=O)N[C@@H](Cc2ccc(NC(=O)c3c(Cl)cccc3Cl)cc2)C(=O)O)c(Cl)c1",
    "measurement.label": "pIC50",
    "value.reported": 9.20
  }
]

---

tested.on: VLA-4 (a4b1 integrin) (Homo sapiens, UniProt P05556+P13612)
Construct: followed by 10 µl of Ramos cell-derived VLA-4; endogenous in cells; host or cells: Ramos cells (VLA-4 preparation derived from the cells)
assay.remarks: VLA-4 / VCAM-1 Screening Assay (solid-phase, dual antibody ELISA)
protocol.conditions: read-out: ELISA IC50 nM; Ramos cell-derived VLA-4 binding to immobilized recombinant human VCAM-1; 1 mM MnCl2, 2 hr at 37 °C
measurement.label: IC50 (nM)

[
  {
    "chem.smiles": "Cc1cccc(Cl)c1C(=O)N[C@@H](Cc1ccc(N2C(=O)c3ccc(C#N)cc3C2=O)cc1)C(=O)O",
    "value.reported": 1.7
  }
]

---

tested.on: VLA-4 (a4b1 integrin) (Homo sapiens, UniProt P05556+P13612)
Construct: followed by 10 µl of Ramos cell-derived VLA-4; endogenous in cells; host or cells: Ramos cells (VLA-4 preparation derived from the cells)
assay.remarks: Ramos (VLA-4) / VCAM-1 Cell-Based Screening Assay (cell adhesion)
protocol.conditions: Calcein-AM labeled Ramos cells adhering to immobilized recombinant human VCAM-1; 45 min at room temperature; read-out: Ramos IC50

[
  {
    "compound": "Nc1ccc(C(=O)N[C@@H](Cc2ccc(NC(=O)c3c(Cl)cccc3Cl)cc2)C(=O)O)c(Cl)c1 [Example 124]",
    "IC50 [nM]": 985
  },
  {
    "compound": "Cc1cccc(Cl)c1C(=O)N[C@@H](Cc1ccc(NC(=O)c2c(Cl)cccc2Cl)cc1)C(=O)O [Example 13]",
    "IC50 [nM]": 15
  },
  {
    "compound": "O=C(N[C@@H](Cc1ccc(NC(=O)c2c(Cl)cccc2Cl)cc1)C(=O)O)c1ccc(Br)cc1Cl [Example 22]",
    "IC50 [nM]": 1320
  },
  {
    "compound": "O=C(Nc1ccc(C[C@H](NC(=O)c2cccc3ccccc23)C(=O)O)cc1)c1c(Cl)cccc1Cl [Example 15]",
    "IC50 [nM]": 2600
  }
]

---

tested.on: VLA-4 (a4b1 integrin) (Homo sapiens, UniProt P05556+P13612)
Construct: followed by 10 µl of Ramos cell-derived VLA-4; endogenous in cells; host or cells: Ramos cells (VLA-4 preparation derived from the cells)
assay.remarks: VLA-4 / VCAM-1 Screening Assay (solid-phase, dual antibody ELISA)
protocol.conditions: ELISA IC50 nM, Ramos cell-derived VLA-4 binding to immobilized recombinant human VCAM-1; 1 mM MnCl2, 2 hr at 37 °C
measurement.label: IC50 (nM)

[
  {
    "chem.smiles": "Cc1cccc(Cl)c1C(=O)N[C@@H](Cc1ccc(NC(=O)c2c(C)ccnc2C)cc1)C(=O)O",
    "tested.on": "VLA-4 (a4b1 integrin) (Homo sapiens, UniProt P05556+P13612)",
    "measurement.label": "IC50",
    "unit.info": "nM",
    "value.reported": 0.79
  }
]

---

tested.on: VLA-4 (a4b1 integrin) (Homo sapiens, UniProt P05556+P13612)
Construct: followed by 10 µl of Ramos cell-derived VLA-4; endogenous in cells; host or cells: Ramos cells (VLA-4 preparation derived from the cells)
assay.remarks: Ramos (VLA-4) / VCAM-1 Cell-Based Screening Assay (cell adhesion)
protocol.conditions: Calcein-AM labeled Ramos cells adhering to immobilized recombinant human VCAM-1; 45 min at room temperature; read-out: Ramos IC50
# label = Y if IC50 < 30 nM else N

[
  {
    "compound": "CS(=O)(=O)c1ccc(C(=O)N[C@@H](Cc2ccc(NC(=O)c3c(Cl)cccc3Cl)cc2)C(=O)O)c(Cl)c1",
    "label": "Y"
  },
  {
    "compound": "COc1ccc(C(=O)N[C@@H](Cc2ccc(NC(=O)c3c(Cl)cccc3Cl)cc2)C(=O)O)c(Cl)c1",
    "label": "N"
  },
  {
    "compound": "O=C(Nc1ccc(C[C@H](NC(=O)c2c(F)cccc2C(F)(F)F)C(=O)O)cc1)c1c(Cl)cccc1Cl",
    "label": "N"
  },
  {
    "compound": "Cc1cc(C(F)(F)F)c(C(=O)N[C@@H](Cc2ccc(NC(=O)c3c(Cl)cccc3Cl)cc2)C(=O)O)c(C)n1",
    "label": "N"
  },
  {
    "compound": "CC(=O)N1C(Cc2ccccc2)C(=O)N(c2ccc(C[C@H](NC(=O)c3c(C)cccc3Cl)C(=O)O)cc2)C1c1ccccc1 (single isomer, unassigned)",
    "label": "N"
  },
  {
    "compound": "O=C(N[C@@H](Cc1ccc(NC(=O)c2c(Cl)cccc2Cl)cc1)C(=O)O)c1ccc(O)cc1Cl",
    "label": "N"
  }
]
